Listed here: compounds with reported MIC for Escherichia coli A 261.
observation type: MIC

- smiles: "CNc1ncnc2c1[n+]([O-])c1ccccc1[n+]2[O-]"
  reported measurement: "5 µg/mL"
- smiles: "CCNc1ncnc2c1[n+]([O-])c1ccccc1[n+]2[O-]"
  reported measurement: "20 µg/mL"
- smiles: "[O-][n+]1c2ccccc2[n+]([O-])c2c(NCCO)ncnc21"
  reported measurement: "100 µg/mL"
- smiles: "CC(C)Nc1ncnc2c1[n+]([O-])c1ccccc1[n+]2[O-]"
  reported measurement: "100 µg/mL"
- smiles: "CCCNc1ncnc2c1[n+]([O-])c1ccccc1[n+]2[O-]"
  reported measurement: "100 µg/mL"

* * *

# System: Staphylococcus aureus 133
# test description: Minimum inhibitory concentration (MIC) in the plate test
# Assay type: cell-based
# measurement parameters: pH 7.4
Here the recorded MIC is given for each entry.

- smiles: "CNc1ncnc2c1[n+]([O-])c1ccccc1[n+]2[O-]"
  MIC: "2.5 µg/mL"
- smiles: "CCCCNc1ncnc2c1[n+]([O-])c1ccccc1[n+]2[O-]"
  MIC: "10 µg/mL"
- smiles: "[O-][n+]1c2ccccc2[n+]([O-])c2c(NC3CCCCC3)ncnc21"
  MIC: "10 µg/mL"
- smiles: "CCNc1ncnc2c1[n+]([O-])c1ccccc1[n+]2[O-]"
  MIC: "5 µg/mL"
- smiles: "CC(C)Nc1ncnc2c1[n+]([O-])c1ccccc1[n+]2[O-]"
  MIC: "10 µg/mL"
- smiles: "CCCNc1ncnc2c1[n+]([O-])c1ccccc1[n+]2[O-]"
  MIC: "10 µg/mL"
- smiles: "[O-][n+]1c2ccccc2[n+]([O-])c2c(NCCO)ncnc21"
  MIC: "100 µg/mL"

* * *

# Tested on: Streptococcus pyogenes W
# test description: Minimum inhibitory concentration (MIC) in the plate test
# Type: cell-based
# measurement parameters: pH 7.4

- smiles: "[O-][n+]1c2ccccc2[n+]([O-])c2c(NCCO)ncnc21"
  target: "Streptococcus pyogenes W"
  units label: "µg/mL"
  MIC: 10
- smiles: "CCNc1ncnc2c1[n+]([O-])c1ccccc1[n+]2[O-]"
  target: "Streptococcus pyogenes W"
  units label: "µg/mL"
  MIC: 20
- smiles: "CC(C)Nc1ncnc2c1[n+]([O-])c1ccccc1[n+]2[O-]"
  target: "Streptococcus pyogenes W"
  units label: "µg/mL"
  MIC: 20
- smiles: "CCCCNc1ncnc2c1[n+]([O-])c1ccccc1[n+]2[O-]"
  target: "Streptococcus pyogenes W"
  units label: "µg/mL"
  MIC: 20
- smiles: "CCCNc1ncnc2c1[n+]([O-])c1ccccc1[n+]2[O-]"
  target: "Streptococcus pyogenes W"
  units label: "µg/mL"
  MIC: 20
- smiles: "CNc1ncnc2c1[n+]([O-])c1ccccc1[n+]2[O-]"
  target: "Streptococcus pyogenes W"
  units label: "µg/mL"
  MIC: 20

* * *

Each entry below carries its measured MIC, system: Escherichia coli C 165.

- smiles: "[O-][n+]1c2ccccc2[n+]([O-])c2c(NCCO)ncnc21"
  target: "Escherichia coli C 165"
  MIC: "100 µg/mL"
- smiles: "CC(C)Nc1ncnc2c1[n+]([O-])c1ccccc1[n+]2[O-]"
  target: "Escherichia coli C 165"
  MIC: "100 µg/mL"
- smiles: "CCCNc1ncnc2c1[n+]([O-])c1ccccc1[n+]2[O-]"
  target: "Escherichia coli C 165"
  MIC: "100 µg/mL"
- smiles: "CNc1ncnc2c1[n+]([O-])c1ccccc1[n+]2[O-]"
  target: "Escherichia coli C 165"
  MIC: "5 µg/mL"
- smiles: "CCNc1ncnc2c1[n+]([O-])c1ccccc1[n+]2[O-]"
  target: "Escherichia coli C 165"
  MIC: "160 µg/mL"

These data points were gathered from patent US3984554A.
